# testProtocol: total protein half-life in vivo (active degradation + dilution); higher = more stable protein
# experimentalConditions: wild type E. coli NCM3722; growth: P-lim chemostat; doubling time 12 h
propertyName: total protein half-life in vivo

seqtext="MQKIVIVANGAPYGSESLFNSLRLAIALREQESNLDLRLFLMSDAVTAGLRGQKPGEGYNIQQMLEILTAQNVPVKLCKTCTDGRGISTLPLIDGVEIGTLVELAQWTLSADKVLTF [P0AB52]" result="12.5 h"
seqtext=MRTTIAVVLGAISLTSAFVFADKPDVARSANDEVSTLFFGHDDRVPVNDTTQSPWDAVGQLETASGNLCTATLIAPNLALTAGHCLLTPPKGKADKAVALRFVSNKGLWRYEIHDIEGRVDPTLGKRLKADGDGWIVPPAAAPWDFGLIVLRNPPSGITPLPLFEGDKAALTAALKAAGRKVTQAGYPEDHLDTLYSHQNCEVTGWAQTSVMSHQCDTLPGDSGSPLMLHTDDGWQLIGVQSSAPAAKDRWRADNRAISVTGFRDKLDQLSQK result="11.4 h"
seqtext=MKVLTVFGTRPEAIKMAPLVHALAKDPFFEAKVCVTAQHREMLDQVLKLFSIVPDYDLNIMQPGQGLTEITCRILEGLKPILAEFKPDVVLVHGDTTTTLATSLAAFYQRIPVGHVEAGLRTGDLYSPWPEEANRTLTGHLAMYHFSPTETSRQNLLRENVADSRIFITGNTVIDALLWVRDQVMSSDKLRSELAANYPFIDPDKKMILVTGHRRESFGRGFEEICHALADIATTHQDIQIVYPVHLNPNVREPVNRILGHVKNVILIDPQEYLPFVWLMNHAWLILTDSGGIQEEAPSLGKPVLVMRDTTERPEAVTAGTVRLVGTDKQRIVEEVTRLLKDENEYQAMSRAHNPYGDGQACSRILEALKNNRISL result="10.1 h"
seqtext="MQKRAIYPGTFDPITNGHIDIVTRATQMFDHVILAIAASPSKKPMFTLEERVALAQQATAHLGNVEVVGFSDLMANFARNQHATVLIRGLRAVADFEYEMQLAHMNRHLMPELESVFLMPSKEWSFISSSLVKEVARHQGDVTHFLPENVHQALMAKLA [P0A6I6]" result="12.9 h"
seqtext=MKLRDSLAENKSIRLQAEAETWQEAVKIGVDLLVAADVVEPRYYQAILDGVEQFGPYFVIAPGLAMPHGRPEEGVKKTGFSLVTLKKPLEFNHDDNDPVDILITMAAVDANTHQEVGIMQIVNLFEDEENFDRLRACRTEQEVLDLIDRTNAAA result="7.64 h"
seqtext="MELIFLGTSAGVPTRTRNVTAILLNLQHPTQSGLWLFDCGEGTQHQLLHTAFNPGKLDKIFISHLHGDHLFGLPGLLCSRSMSGIIQPLTIYGPQGIREFVETALRISGSWTDYPLEIVEIGAGEILDDGLRKVTAYPLEHPLECYGYRIEEHDKPGALNAQALKAAGVPPGPLFQELKAGKTITLEDGRQINGADYLAAPVPGKALAIFGDTGPCDAALDLAKGVDVMVHEATLDITMEAKANSRGHSSTRQAATLAREAGVGKLIITHVSSRYDDKGCQHLLRECRSIFPATELANDFTVFNV [P0A8V0]" result="11.3 h"

----------
# testProtocol: total protein half-life in vivo (active degradation + dilution); higher = more stable protein
# experimentalConditions: E. coli NCM3722 delta-smpB; growth: N-lim chemostat; doubling time 6 h
Here the recorded total protein half-life in vivo is given for each entry.
propertyName: total protein half-life in vivo (h)

seqtext=MIDLRSDTVTRPSRAMLEAMMAAPVGDDVYGDDPTVNALQDYAAELSGKEAAIFLPTGTQANLVALLSHCERGEEYIVGQAAHNYLFEAGGAAVLGSIQPQPIDAAADGTLPLDKVAMKIKPDDIHFARTKLLSLENTHNGKVLPREYLKEAWEFTRERNLALHVDGARIFNAVVAYGCELKEITQYCDSFTICLSKGLGTPVGSLLVGNRDYIKRAIRWRKMTGGGMRQSGILAAAGIYALKNNVARLQEDHDNAAWMAEQLREAGADVMRQDTNMLFVRVGEENAAALGEYMKARNVLINASPIVRLVTHLDVSREQLAEVAAHWRAFLAR number=4.18
seqtext="MVSSFTSAPRSGFYYFAQGWKLVSQPGIRRFVILPLLVNILLMGGAFWWLFTQLDVWIPTLMSYVPDWLQWLSYLLWPLAVISVLLVFGYFFSTIANWIAAPFNGLLAEQLEARLTGATPPDTGIFGIMKDVPRIMKREWQKFAWYLPRAIVLLILYFIPGIGQTVAPVLWFLFSAWMLAIQYCDYPFDNHKVPFKEMRTALRTRKITNMQFGALTSLFTMIPLLNLFIMPVAVCGATAMWVDCYRDKHAMWR [P0A6J3]" number=6.14
seqtext=MTPEHLPTEQYEAQLAEKVVRLQSMMAPFSDLVPEVFRSPVSHYRMRAEFRIWHDGDDLYHIIFDQQTKSRIRVDSFPAASELINQLMTAMIAGVRNNPVLRHKLFQIDYLTTLSNQAVVSLLYHKKLDDEWRQEAEALRDALRAQNLNVHLIGRATKTKIELDQDYIDERLPVAGKEMIYRQVENSFTQPNAAMNIQMLEWALDVTKGSKGDLLELYCGNGNFSLALARNFDRVLATEIAKPSVAAAQYNIAANHIDNVQIIRMAAEEFTQAMNGVREFNRLQGIDLKSYQCETIFVDPPRSGLDSETEKMVQAYPRILYISCNPETLCKNLETLSQTHKVERLALFDQFPYTHHMECGVLLTAK number=5.35
seqtext="MQARVKWVEGLTFLGESASGHQILMDGNSGDKAPSPMEMVLMAAGGCSAIDVVSILQKGRQDVVDCEVKLTSERREEAPRLFTHINLHFIVTGRDLKDAAVARAVDLSAEKYCSVALMLEKAVNITHSYEVVAA [P0ADX1]" number=5.32
seqtext=MAGNTIGQLFRVTTFGESHGLALGCIVDGVPPGIPLTEADLQHDLDRRRPGTSRYTTQRREPDQVKILSGVFEGVTTGTSIGLLIENTDQRSQDYSAIKDVFRPGHADYTYEQKYGLRDYRGGGRSSARETAMRVAAGAIAKKYLAEKFGIEIRGCLTQMGDIPLDIKDWSQVEQNPFFCPDPDKIDALDELMRALKKEGDSIGAKVTVVASGVPAGLGEPVFDRLDADIAHALMSINAVKGVEIGDGFDVVALRGSQNRDEITKDGFQSNHAGGILGGISSGQQIIAHMALKPTSSITVPGRTINRFGEEVEMITKGRHDPCVGIRAVPIAEAMLAIVLMDHLLRQRAQNADVKTDIPRW number=4.78
